Molecular target: CDK2/cyclin A2 (Homo sapiens, UniProt P24941)
Construct: purchased Carna Biosciences, Inc. QS S Assist CDK2/Cyclin A2_FP Kit
Assay: Human CDK2/cyclin A2 inhibitory activity (QS S Assist CDK2/Cyclin A2_FP Kit, IMAP fluorescence polarization)
Format: biochemical
Details: Human CDK2/cyclin A2 inhibitory activity; read-out: CDK2 Activity symbol
pIC50: −log10 of the molar value.
property: pIC50

>>> df
                                   compound           val
0  CNC1CC2(C1)CN(c1ccc(Nc3ncc4cc([C@@H](C)OC)nc(NC(C)C)c4n3)nc1)C2        ≤ 7.00
1  CC(O)c1cc2cnc(Nc3ccc(N4CCNCC4)cn3)nc2c(NC2CCC2)n1 (centres unmarked)        ≤ 7.00
2  CC(C)Nc1nc(C(F)F)cc2cnc(Nc3ccc(N4CCN(C)CC4=O)cn3)nc12  7.00 to 8.00
3  COCC(C)Nc1nc(C(C)O)cc2cnc(Nc3ccc(N4CCNCC4)cn3)nc12 (centres unmarked)        ≤ 7.00
4  CC(C)Nc1nc(C(F)F)cc2cnc(Nc3ccc(CN4CCN(S(=O)(=O)N(C)C)CC4)cn3)nc12        ≤ 7.00

Give pIC50 for all compounds that follow.
1. CO[C@H](C)c1cc2cnc(Nc3ccc(OC4CCNCC4)cn3)nc2c(NC(C)C)n1
2. COC(C)c1cc2cnc(Nc3ccc(CN4CCNCC4)cn3)nc2c(SC(C)C)n1 (centres unmarked)
3. CO[C@H](C)c1cc2cnc(Nc3ccc(N4C[C@H]5CCN[C@H]5C4=O)cn3)nc2c(NC(C)C)n1

["≤ 7.00", "≤ 7.00", "7.00 to 8.00"]
